Reported binding signal (nm) values follow for various binders
Target: T1, human galectin-10-His (recombinant human galectin-10 with TEV-cleavable N-terminal His-tag) (human)
T1 construct: SEC-MALLS: dimer in solution; also called Gal10-His; humanGal10-His
T1 chain: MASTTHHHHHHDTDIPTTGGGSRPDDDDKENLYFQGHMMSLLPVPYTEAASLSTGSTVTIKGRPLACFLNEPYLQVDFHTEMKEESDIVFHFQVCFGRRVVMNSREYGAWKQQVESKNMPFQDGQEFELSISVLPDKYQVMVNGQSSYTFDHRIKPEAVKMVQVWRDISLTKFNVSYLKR
Test: BLI tandem on galectin-10-His; competitor: saturating 6F06 mIgG1 (10 ug/mL)
Provide the reading as a plain figure in nm.

Here is how some binders turned out for binding signal (nm).
>>> reported_result("6A08 mouse IgG1 (antibody, V domains shown, also called 6A08 mIgG1) VH: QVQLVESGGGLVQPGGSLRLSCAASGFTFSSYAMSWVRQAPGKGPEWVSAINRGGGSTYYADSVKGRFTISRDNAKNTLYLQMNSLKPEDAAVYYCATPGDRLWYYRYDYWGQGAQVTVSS VL: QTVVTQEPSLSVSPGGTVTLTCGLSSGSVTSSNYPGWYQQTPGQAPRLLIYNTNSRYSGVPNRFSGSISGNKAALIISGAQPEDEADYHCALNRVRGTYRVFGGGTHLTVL")
0.05
>>> reported_result("6A05 mouse IgG1 (antibody, V domains shown, also called 6A05 mIgG1) VH: EVQLVESGGGLVQPGGSLRLSCAASGFTFSSYAMSWVRQAPGKGLEWVSAINSGGGWTSYVDSVKGRFTISRDNAKNTLYLQMDSLKPEDTAVYYCTKYSGPELNTQYGMDYWGKGTLVTVSS VL: NFMLTQPSAVSVSLGQTARITCQGGNFGSYYASWYQQKPGQAPVLVIYRDSGRPSGIPERFSGSSSGDTATLTISGAQAEDEADYYCQSGSSSDNTVFGGGTHLTVL")
0.02
>>> reported_result("4E08 mouse IgG1 (antibody, V domains shown, VH on mouse IgG1 heavy chain constant domains (CH1-CH2-CH3), VL on mouse lambda light chain constant domain; also called 4E8; 4E08 mIgG1) VH: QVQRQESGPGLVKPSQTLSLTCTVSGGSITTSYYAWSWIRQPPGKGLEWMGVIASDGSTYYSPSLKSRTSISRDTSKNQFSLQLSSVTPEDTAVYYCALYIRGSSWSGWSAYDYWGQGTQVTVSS VL: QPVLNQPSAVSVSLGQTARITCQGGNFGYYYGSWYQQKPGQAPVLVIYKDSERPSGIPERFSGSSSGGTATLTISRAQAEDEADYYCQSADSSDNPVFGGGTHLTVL")
0.01

Q: Consider the binder 2F09 mouse IgG1 (antibody, V domains shown, VH on mouse IgG1 heavy chain constant domains (CH1-CH2-CH3), VL on mouse lambda light chain constant domain; also called 2F09 mIgG1) VH: QVQVQESGPGLVKPSQTLSLTCTVSGGSITTNYFYWSWIRQSPGKGLEWIGAIAYSGRTYYSPSLKSRTSISRDTSNNQFTLQLSSVTPEDTAVYYCARGPKGLASYYDYWGQGTQVTVSS VL: SSALTQPSAVSVSLGQTARITCQGGNFGYYYVSWYQQKPGQAPVLVIYRDSGRPSGIPERFSGSSSGDTATLTISGAQAEDEADYYCQSGSSSDNTVFGGGTHLTVL and give its measured binding signal (nm).
Ans: 0.06

Q: Please give the measured binding signal (nm) for this binder: 1D11 mouse IgG1 (antibody, V domains shown, VH on mouse IgG1 heavy chain constant domains (CH1-CH2-CH3), VL on mouse lambda light chain constant domain; also called 1D011; 1D11 mIgG1) VH: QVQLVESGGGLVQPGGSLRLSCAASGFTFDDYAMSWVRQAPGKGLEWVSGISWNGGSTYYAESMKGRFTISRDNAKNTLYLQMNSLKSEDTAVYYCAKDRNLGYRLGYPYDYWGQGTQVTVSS VL: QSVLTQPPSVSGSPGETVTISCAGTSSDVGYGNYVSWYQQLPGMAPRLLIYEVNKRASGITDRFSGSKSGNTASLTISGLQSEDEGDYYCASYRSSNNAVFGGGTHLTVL
Ans: 0.03
